Task for the reader: assign each of the following molecules its reported % inhibition of COMT activity, brain, 6 h.
# Target or system: brain COMT (Rattus norvegicus, UniProt P22734)
# Construct: Aliquots of 0.5 ml of liver and whole brain homogenates were preincubated; from tissue; host or cells: whole brain homogenate of male Wistar rats
# Sequence (P22734 1-264): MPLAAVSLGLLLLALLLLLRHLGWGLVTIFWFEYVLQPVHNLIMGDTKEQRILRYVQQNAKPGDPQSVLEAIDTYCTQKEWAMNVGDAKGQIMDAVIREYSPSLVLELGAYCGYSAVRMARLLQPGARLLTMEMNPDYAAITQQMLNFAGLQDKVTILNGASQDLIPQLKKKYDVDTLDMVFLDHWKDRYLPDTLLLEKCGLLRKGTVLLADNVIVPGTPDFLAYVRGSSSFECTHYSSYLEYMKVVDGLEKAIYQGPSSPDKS
# Procedure summary: Brain COMT activity in homogenates after administration of test compounds by gastric tube
# Assay type: in vivo
# Experimental setup: rat brain homogenate, 6 h after administration by gastric tube; mean ± S.E.M., n=4
Please reply with the bare figure in % and do not write the unit itself.

Task item: Record request: % inhibition of COMT activity, brain, 6 h value, item O=C(CCc1ccccc1)c1cc(O)c(O)c([N+](=O)[O-])c1 [C]
Reply: 33.4

Task item: How about this molecule: Cc1ccc(C(=O)c2cc(O)c(O)c([N+](=O)[O-])c2)cc1 [Tolcapone, reference compound]
Reply: 85.8

Task item: How about this molecule: O=C(CCCCc1ccccc1)c1cc(O)c(O)c([N+](=O)[O-])c1 [E]
Reply: −5.6

Task item: How about this molecule: O=C(c1ccccc1)c1cc(O)c(O)c([N+](=O)[O-])c1 [Compound A, 3,4-dihydroxy-5-nitrobenzophenone]
Reply: 85.8

Task item: How about this molecule: O=C(CCCc1ccccc1)c1cc(O)c(O)c([N+](=O)[O-])c1 [D]
Reply: 26.7

###

Task for the reader: assign each of the following molecules its reported % inhibition of COMT activity, brain, 0.5 h.
# Target or system: brain COMT (Rattus norvegicus)
# Construct: Aliquots of 0.5 ml of liver and whole brain homogenates were preincubated; from tissue; host or cells: whole brain homogenate of male Wistar rats
# Procedure summary: Brain COMT activity in homogenates after administration of test compounds by gastric tube
# Type: in vivo
# Experimental setup: rat brain homogenate, 0.5 h after administration by gastric tube; mean ± S.E.M., n=4
Please reply with the bare figure in % and do not write the unit itself.

Task item: Record request: % inhibition of COMT activity, brain, 0.5 h value, item `O=C(CCc1ccccc1)c1cc(O)c(O)c([N+](=O)[O-])c1`
Reply: 89.9

Task item: How about this molecule: Cc1ccc(C(=O)c2cc(O)c(O)c([N+](=O)[O-])c2)cc1 [Tolcapone, reference compound]
Reply: 98.9

Task item: How about this molecule: `O=C(CCCCc1ccccc1)c1cc(O)c(O)c([N+](=O)[O-])c1`
Reply: 87.4

Task item: How about this molecule: `O=C(CCCc1ccccc1)c1cc(O)c(O)c([N+](=O)[O-])c1`
Reply: 85.1

Task item: How about this molecule: O=C(c1ccccc1)c1cc(O)c(O)c([N+](=O)[O-])c1 [Compound A, 3,4-dihydroxy-5-nitrobenzophenone]
Reply: 96.3

###

# Target or system: liver COMT (Rattus norvegicus, UniProt P22734)
# Construct: Aliquots of 0.5 ml of liver and whole brain homogenates were preincubated; from tissue; host or cells: liver homogenate of male Wistar rats
# Procedure summary: Liver COMT activity in homogenates after administration of test compounds by gastric tube
# Assay type: in vivo
# Experimental setup: rat liver homogenate, 6 h after administration by gastric tube; mean ± S.E.M., n=4
Experimental readout: % inhibition of COMT activity, liver, 6 h

Task item: Record request: % inhibition of COMT activity, liver, 6 h value, item `O=C(CCc1ccccc1)c1cc(O)c(O)c([N+](=O)[O-])c1`
Reply: 70.8 ± 12.8%

Task item: How about this compound: O=C(c1ccccc1)c1cc(O)c(O)c([N+](=O)[O-])c1 [Compound A, 3,4-dihydroxy-5-nitrobenzophenone]
Reply: 80.5 ± 7.3%

Task item: How about this compound: `O=C(CCCc1ccccc1)c1cc(O)c(O)c([N+](=O)[O-])c1`
Reply: 52.0 ± 9.5%

Task item: How about this compound: Cc1ccc(C(=O)c2cc(O)c(O)c([N+](=O)[O-])c2)cc1 [Tolcapone, reference compound]
Reply: 94.1 ± 0.3%

Task item: How about this compound: `O=C(CCCCc1ccccc1)c1cc(O)c(O)c([N+](=O)[O-])c1`
Reply: 36.0 ± 6.3%

###

Task for the reader: assign each of the following molecules its reported IC50.
# Target or system: rat liver COMT (Rattus norvegicus, UniProt P22734)
# Construct: Aliquots of 0.5 ml of liver and whole brain homogenates were preincubated
# Procedure summary: In vitro COMT inhibition, rat liver homogenate (methylation of adrenaline to metanephrine)
Please reply with the bare figure in nM and do not write the unit itself.

Task item: Record request: IC50 value, item `O=C(CCCCc1ccccc1)c1cc(O)c(O)c([N+](=O)[O-])c1`
Reply: 1280

Task item: How about this molecule: `O=C(CCCc1ccccc1)c1cc(O)c(O)c([N+](=O)[O-])c1`
Reply: 1850

Task item: How about this molecule: O=C(c1ccccc1)c1cc(O)c(O)c([N+](=O)[O-])c1 [Compound A, 3,4-dihydroxy-5-nitrobenzophenone]
Reply: 935

Task item: How about this molecule: `O=C(CCc1ccccc1)c1cc(O)c(O)c([N+](=O)[O-])c1`
Reply: 829

###

# Target or system: liver COMT (Rattus norvegicus, UniProt P22734)
# Construct: Aliquots of 0.5 ml of liver and whole brain homogenates were preincubated; from tissue; host or cells: liver homogenate of male Wistar rats
# Sequence (P22734 44-264 limits assumed): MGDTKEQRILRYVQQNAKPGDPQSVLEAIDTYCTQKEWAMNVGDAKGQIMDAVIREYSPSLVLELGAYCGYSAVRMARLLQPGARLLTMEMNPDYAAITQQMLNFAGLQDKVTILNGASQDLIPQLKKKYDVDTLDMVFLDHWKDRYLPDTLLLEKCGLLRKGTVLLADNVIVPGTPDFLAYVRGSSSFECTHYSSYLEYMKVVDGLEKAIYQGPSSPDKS
# Procedure summary: Liver COMT activity in homogenates after administration of test compounds by gastric tube
# Assay type: in vivo
# Experimental setup: rat liver homogenate, 0.5 h after administration by gastric tube; mean ± S.E.M., n=4
Task for the reader: assign each of the following molecules its reported % inhibition of COMT activity, liver, 0.5 h.
Please reply with the bare figure in % and do not write the unit itself.

Task item: Record request: % inhibition of COMT activity, liver, 0.5 h value, item Cc1ccc(C(=O)c2cc(O)c(O)c([N+](=O)[O-])c2)cc1 [Tolcapone, reference compound]
Reply: 100.0

Task item: How about this molecule: O=C(CCCc1ccccc1)c1cc(O)c(O)c([N+](=O)[O-])c1 [D]
Reply: 97.5

Task item: How about this molecule: O=C(CCCCc1ccccc1)c1cc(O)c(O)c([N+](=O)[O-])c1 [E]
Reply: 99.2

Task item: How about this molecule: O=C(c1ccccc1)c1cc(O)c(O)c([N+](=O)[O-])c1 [Compound A, 3,4-dihydroxy-5-nitrobenzophenone]
Reply: 99.0
